Test: RP-TLC lipophilicity, silica gel C8, methanol-water
Assay type: physicochemical
Conditions: RP-TLC silica gel C8, first principal component of RM values, contains 83.57% of information
Observed Property: PC1

Molecule | Reading
CCn1cc(C(=O)O)c(=O)c2cnc(N3CC[N+]4(CC3)CN3C(C)=CC(C)=C(C(=O)O)C3=N4)nc21.[Cl-] | 0.79

1 = CCn1cc(C(=O)O)c(=O)c2cnc(N3CC[N+]4(CC3)CN3C(=N4)C(C(=O)O)=Cc4ccccc43)nc21.[Cl-]
2 = CCn1cc(C(=O)O)c(=O)c2cc(F)c(N3CC[N+]4(CC3)CN3C(C)=CC(C)=C(C(=O)O)C3=N4)nc21.[Cl-]
3 = CCn1cc(C(=O)O)c(=O)c2cnc(N3CCNCC3)nc21 [Compound 19, pipemidic acid, reference compound]
Query string: Ordering: ascending PC1. Please list the labels in the order you were asked to rank them.
Result string: 3, 1, 2

P = CCn1cc(C(=O)O)c(=O)c2cc(F)c(N3CC[N+]4(CC3)CN3C(=N4)C(C(=O)O)=Cc4ccccc43)nc21.[Cl-]
Q = CCn1cc(C(=O)O)c(=O)c2cc(F)c(N3CC[N+]4(CN5C(C)=CC(C)=C(C(=O)O)C5=N4)C(C)C3)c(F)c21.[Cl-] (stereo not drawn)
Query string: Thinking about recorded PC1 values, which is higher, P or Q ? API: response body contains the label of the selected item.
Result string: Q

---

Assay: RP-TLC lipophilicity, silica gel C8, methanol-water
Assay type: physicochemical
Conditions: RP-TLC silica gel C8, slope of Soczewiński–Wachtmeister equation
Observed Property: b

Compound | Reading
O=C(O)C1=Cc2ccccc2N2C[N+]3(CCN(c4cc5c(cc4F)c(=O)c(C(=O)O)cn5C4CC4)CC3)N=C12.[Cl-] | −1.56
COc1c(N2CCNC(C)C2)c(F)cc2c(=O)c(C(=O)O)cn(C3CC3)c12 (stereo not shown) [Compound 21, reference compound] | −2.83
C[C@@H]1CN(c2c(F)c(N)c3c(=O)c(C(=O)O)cn(C4CC4)c3c2F)C[C@H](C)N1 [Compound 20, reference compound] | −2.13
O=C(O)c1cn(C2CC2)c2cc(N3CCNCC3)c(F)cc2c1=O [Compound 22, ciprofloxacin, reference compound] | −1.27

---

Assay: RP-TLC lipophilicity, silica gel C18, methanol-water
Assay type: physicochemical
Details: RP-TLC silica gel C18, first principal component of RM values, contains 86.92% of information
Observed Property: PC1

Recorded PC1, per entry:
Compound | Observed Property | Reading
CCn1cc(C(=O)O)c(=O)c2cc(F)c(N3CCNC(C)C3)c(F)c21 (stereo not drawn) [Compound 17, reference compound] | PC1 | −1.08
CCn1cc(C(=O)O)c(=O)c2cc(F)c(N3CC[N+]4(CN5C(=N4)C(C(=O)O)=Cc4ccccc45)C(C)C3)c(F)c21.[Cl-] (stereo not drawn) [Compound 5] | PC1 | 0.88

a = CCn1cc(C(=O)O)c(=O)c2cnc(N3CCNCC3)nc21 [Compound 19, pipemidic acid, reference compound]
b = CC1CN(c2c(F)c(N)c3c(=O)c(C(=O)O)cn(C4CC4)c3c2F)CC(C)[N+]12CN1C(=N2)C(C(=O)O)=Cc2ccccc21.[Cl-] (stereo not drawn) [Compound 3]
c = O=C(O)C1=Cc2ccccc2N2C[N+]3(CCN(c4cc5c(cc4F)c(=O)c(C(=O)O)cn5C4CC4)CC3)N=C12.[Cl-] [Compound 8]
d = CCn1cc(C(=O)O)c(=O)c2cnc(N3CC[N+]4(CC3)CN3C(C)=CC(C)=C(C(=O)O)C3=N4)nc21.[Cl-] [Compound 10]
Query string: Reorder: PC1, max to min. A complete answer lists every label in the requested sequence.
Result string: d, c, b, a
